Biological target: Calcitonin gene-related peptide type 1 receptor (Homo sapiens, UniProt O60894+Q16602)
Sequence (Q16602 whole entry, one chain of several): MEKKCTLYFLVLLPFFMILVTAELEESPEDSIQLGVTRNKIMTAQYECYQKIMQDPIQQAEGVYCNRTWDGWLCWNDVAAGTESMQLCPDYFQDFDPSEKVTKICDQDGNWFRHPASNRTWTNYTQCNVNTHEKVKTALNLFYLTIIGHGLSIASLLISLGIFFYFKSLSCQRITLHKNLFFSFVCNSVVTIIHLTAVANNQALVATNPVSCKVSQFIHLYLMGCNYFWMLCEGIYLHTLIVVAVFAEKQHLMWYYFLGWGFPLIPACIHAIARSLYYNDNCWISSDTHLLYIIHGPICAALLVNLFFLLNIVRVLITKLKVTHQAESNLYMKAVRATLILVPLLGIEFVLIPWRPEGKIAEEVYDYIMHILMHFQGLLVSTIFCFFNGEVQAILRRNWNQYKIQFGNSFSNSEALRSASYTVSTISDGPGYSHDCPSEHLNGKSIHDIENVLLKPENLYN
Test: Displacement of [I125]CGRP from CGRP receptor in human SK-N-MC cell membrane after 2 hrs by gamma or scintillation counting
Assay type: cell membranes
RECORDED ENDPOINT: IC50 (pM)
Please reply with the bare figure in pM and do not write the unit itself.

Consider the worked cases shown below.
[[record]]
compound = "Cc1cc(CC(OC(=O)N2CCC(c3cc4ccccc4[nH]c3=O)CC2)c2cc(CN3CCCC3)ccn2)cc2cn[nH]c12 (centres undefined)"
reading = 240

[[record]]
compound = "Cc1cc(CC(OC(=O)N2CCC(N3Cc4ccccc4NC3=O)CC2)c2cc(C(=O)N3CCCCC3)ccn2)cc2cn[nH]c12 (centres undefined)"
reading = 280

[[record]]
compound = "Cc1cc(CC(OC(=O)N2CCC(N3Cc4ccccc4NC3=O)CC2)c2ccccn2)cc2c(-c3ccccc3)n[nH]c12 (centres undefined)"
reading = 240


Per the records, this compound ( Cc1cc(CC(OC(=O)N2CCC(N3Cc4ccccc4NC3=O)CC2)c2cc(C(=O)N(C)C)ccn2)cc2cn[nH]c12 (centres undefined) ) has IC50 equal to 330
